pKi: −log10 of the molar value.
Field pKi: reported value for Vasopressin V1b receptor (Homo sapiens, UniProt P47901); entries drawn from several documents.
Sequence (P47901 whole entry): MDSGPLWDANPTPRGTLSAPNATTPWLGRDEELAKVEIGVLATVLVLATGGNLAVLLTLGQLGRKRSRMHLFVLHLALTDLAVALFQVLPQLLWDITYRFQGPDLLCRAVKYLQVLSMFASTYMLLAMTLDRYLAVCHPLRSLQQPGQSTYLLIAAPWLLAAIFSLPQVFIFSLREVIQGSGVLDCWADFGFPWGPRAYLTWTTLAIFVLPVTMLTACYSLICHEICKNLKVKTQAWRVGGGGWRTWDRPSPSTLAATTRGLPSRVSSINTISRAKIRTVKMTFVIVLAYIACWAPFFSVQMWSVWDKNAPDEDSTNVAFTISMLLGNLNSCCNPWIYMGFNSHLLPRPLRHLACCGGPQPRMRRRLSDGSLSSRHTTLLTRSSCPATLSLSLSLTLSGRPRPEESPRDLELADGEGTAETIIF

Entry CCOc1ncccc1[C@]1(NC(=O)N2CCN(C3CCN(C4COC4)CC3)CC2)C(=O)N(S(=O)(=O)c2ccc(OC)cc2F)c2ccc(C#N)cc21 , system Vasopressin V1b receptor (Homo sapiens, UniProt P47901): what pKi was measured?
8.00 to 9.00

Param readout= pKi; system= Vasopressin V1b receptor (Homo sapiens, UniProt P47901); entry= CCOc1ccc(OC)cc1C1(N2CCN(c3ccnc(C)c3)CC2)C(=O)N(S(=O)(=O)c2cccc3cccnc23)c2ccc(C#N)cc21 (racemic) ; returns value.
> 8.00

Please provide the recorded pKi for CCOc1ncccc1[C@]1(NC(=O)N2CC(N3CCC(N(CC)CC)CC3)C2)C(=O)N(S(=O)(=O)c2ccc(OC)cc2OC)c2ccc(C#N)cc21 , tested on Vasopressin V1b receptor (Homo sapiens, UniProt P47901).
8.00 to 9.00

For Vasopressin V1b receptor (Homo sapiens, UniProt P47901), provide pKi of COc1ccc(S(=O)(=O)n2c(=O)n(C(C(=O)N3CCN(c4ccncc4)CC3)c3ccccc3)c3ccccc32)c(OC)c1 (stereo not drawn) please.
5.00 to 6.30

// fetch Vasopressin V1b receptor (Homo sapiens, UniProt P47901) pKi for CCN(C)Cc1ccc(OC)c(C2(N3CCC[C@H]3c3ncco3)C(=O)N(S(=O)(=O)c3ccc(OC)cc3)c3cc(Cl)ccc32)c1 (stereo partly drawn)
6.00 to 7.00

Please tell me: pKi of CCCN1CCC(N2CCN(C(=O)C(c3ccccc3)n3c(=O)n(S(=O)(=O)c4ccc(OC)cc4)c4ccc(Cl)cc43)CC2)CC1 (stereo not drawn) , system Vasopressin V1b receptor (Homo sapiens, UniProt P47901)?
6.30 to 7.00
